- target_system: T1, His-tagged human HER3 (human, UniProt P21860 20-643)
- T1 construct: Antigen of the BLI experiments and of the HER2-Fc dimerisation ELISA; also called HER3 His; not shown: His tag
- test_summary: BLI (Octet QK384), antibody on anti-human IgG capture tips, His-tagged human HER3 in solution, global one-site fit
Answer each item with its documented pKd.
One number for each entry, as −log10 of the molar value.

Consider the following items and state reported pKd for each.
1. anti-HER3 clone 10D1_c77 IgG1 (antibody, V domains shown, Humanised 10D1 variant, IgG1/kappa) VH: DVQLQEWGAGLLKPSETLSLTCAVTGYSITSGYSWHWIRQFPGNGLEWIGSIHYSGGTNYNPSLKSRITISRDTSKNQFSLKLSSVTAADTAVYFCARMTTAPRYPFDYWGQGTLVTVSS VL: VIVMTQSPSSLSASVGDRVTITCKASQIVGPNVAWYQQKPGKSPKPLIYSASYGYSDVPSRFSGSGSGTDFTLTISSLQPEDVAEYFCQQYSTHPLTFGPGTKVEIKR
2. anti-HER3 clone 10D1_11B IgG1 (antibody, V domains shown, Humanised 10D1 variant, IgG1/kappa; also called v11b78L; C78 v11b) VH: DVQLQEWGAGLLKPSETLSLTCAVYGYSITSGYSWHWIRQPPGKGLEWIGSIHYSGGTNYNPSLKSRVTISRDTSKNQFSLKLSSVTAADTAVYYCARMTTAPRYPFDYWGQGTLVTVSS VL: DIVMTQSPSSLSASVGDRVTITCKASQIVGSNVAWYQQKPGKSPKPLIYSASYGYSDVPSRFSGSGSGTDFTLTISSLRPEDVATYYCQQYSSHPLTFGPGTKVEIKR

Return:
1: 8.71; 2: 9.39

Enquiry: Name the recorded pKd for anti-HER3 clone 10D1_c85o1 IgG1 (antibody, V domains shown, Humanised 10D1 variant, IgG1/kappa; also called 10D1_c8501) VH: DVQLQEWGAGLLKPSETLSLTCAVTGYSITSGYSWHWIRQFPGKGLEWIGSIRYSGGTNYNPSLKSRITISRDTSKNQFSLKLGSVTAADTAVYFCARETTAPRYPFDYWGQGTLVTVSS VL: DIVMTQSPSSLSASVGDRVTITCKASQIVGSNVAWYQQKPGKSPKPLIYSARYQYSGVPFRFSGSGSGTDFTLTISSLQPEDVATYYCQQYSSHPLTFGPGTKVEIKR .
Return: 7.74
